system: CGRP receptor (Homo sapiens, UniProt O60894+Q16602)
Sequence (Q16602 23-461): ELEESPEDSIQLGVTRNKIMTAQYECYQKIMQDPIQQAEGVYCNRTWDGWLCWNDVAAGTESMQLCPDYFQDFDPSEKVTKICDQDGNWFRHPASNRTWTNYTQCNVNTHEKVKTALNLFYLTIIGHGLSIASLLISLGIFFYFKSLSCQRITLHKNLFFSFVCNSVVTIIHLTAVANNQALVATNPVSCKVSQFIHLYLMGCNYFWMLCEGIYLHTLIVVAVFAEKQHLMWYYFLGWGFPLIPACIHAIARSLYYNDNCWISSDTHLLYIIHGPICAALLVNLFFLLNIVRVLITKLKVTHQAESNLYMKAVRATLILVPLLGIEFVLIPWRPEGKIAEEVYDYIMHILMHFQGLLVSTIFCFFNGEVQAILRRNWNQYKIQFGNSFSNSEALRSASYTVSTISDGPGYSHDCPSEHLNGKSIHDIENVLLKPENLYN
Sequence (O60894 27-148): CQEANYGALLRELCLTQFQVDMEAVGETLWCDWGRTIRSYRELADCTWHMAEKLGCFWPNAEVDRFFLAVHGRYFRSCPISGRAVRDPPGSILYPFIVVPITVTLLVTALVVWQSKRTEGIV
assay.method.text: CGRP radioligand binding assay ([125I]-CGRP displacement, SK-N-MC homogenate)
Set-up: endogenous in cells; host or cells: SK-N-MC cells (homogenate/membrane pellet)
condition.context: Table 2; displacement of [125I]-CGRP, SK-N-MC membranes
measurement.name: IC50

Reference set, count: 3
molecule	system	IC50
CC(C)(C)CN1Cc2c(cc(Cl)c3[nH]ncc23)C[C@@H](N/C(=N/C#N)N2CCC(c3cc4ccccc4[nH]c3=O)CC2)C1=O	CGRP receptor (Homo sapiens, UniProt O60894+Q16602)	0.01 to 10 nM
O=C(C[C@@H]1Cc2cc(Cl)c3[nH]ncc3c2CN(Cc2ccncc2)C1=O)N1CCC(N2Cc3cccc(F)c3NC2=O)CC1	CGRP receptor (Homo sapiens, UniProt O60894+Q16602)	0.01 to 10 nM
CC(C)(C)CCN1Cc2c(ccc3[nH]ncc23)C[C@@H](NC(=O)N2CCC(N3Cc4ccccc4NC3=O)CC2)C1=O	CGRP receptor (Homo sapiens, UniProt O60894+Q16602)	0.01 to 10 nM

*Q* Lab note: need IC50 with CGRP receptor (Homo sapiens, UniProt O60894+Q16602) for entry `CC(=O)N1CCC(N2Cc3c(ccc4[nH]ncc34)C[C@@H](NC(=O)N3CCC(N4Cc5ccccc5NC4=O)CC3)C2=O)CC1` , please look it up.
*A* 10 to 100 nM

*Q* Lab note: need IC50 with CGRP receptor (Homo sapiens, UniProt O60894+Q16602) for entry `CC(C)(C)CN1Cc2c(ccc3[nH]ncc23)C[C@@H](NC(=O)N2CCC3(CC2)N=C(c2ccccc2)NC3=O)C1=O` , please look it up.
*A* 100 to 1000 nM

*Q* Lab note: need IC50 with CGRP receptor (Homo sapiens, UniProt O60894+Q16602) for entry `O=C(C[C@@H]1Cc2cc(Cl)c3[nH]ncc3c2CN(CC(F)(F)F)C1=O)N1CCC(c2cc3cccc(F)c3[nH]c2=O)CC1` , please look it up.
*A* 0.01 to 10 nM

*Q* Lab note: need IC50 with CGRP receptor (Homo sapiens, UniProt O60894+Q16602) for entry `O=C(N[C@@H]1Cc2cc(Cl)c3[nH]ncc3c2CN(Cc2ccccc2)C1=O)N1CCC(N2Cc3ccccc3NC2=O)CC1` , please look it up.
*A* 0.01 to 10 nM

*Q* Lab note: need IC50 with CGRP receptor (Homo sapiens, UniProt O60894+Q16602) for entry `CC(C)(C)CN1Cc2c(cc(Cl)c3[nH]ncc23)C[C@@H](CC(=O)N2CCC(N3Cc4ccccc4CC3=O)CC2)C1=O` , please look it up.
*A* 0.01 to 10 nM

*Q* Lab note: need IC50 with CGRP receptor (Homo sapiens, UniProt O60894+Q16602) for entry `CC(C)(C)CN1Cc2c(cc(Cl)c3[nH]ncc23)C[C@@H](CC(=O)N2CCC(c3cc4cccnc4[nH]c3=O)CC2)C1=O` , please look it up.
*A* 0.01 to 10 nM

----------
IC50 values for the molecules below.
system: CGRP receptor (Homo sapiens, UniProt O60894+Q16602)
assay.method.text: CGRP radioligand binding assay ([125I]-CGRP displacement, SK-N-MC homogenate)
Design: endogenous in cells; host or cells: SK-N-MC cells (homogenate/membrane pellet)
condition.context: Table 1; displacement of [125I]-CGRP, SK-N-MC membranes

molecule	readout.value
CCn1ncc2c3c(cc(Cl)c21)C[C@@H](CC(=O)N1CCC(n2c(=O)[nH]c4ncccc42)CC1)C(=O)N(CC(F)(F)F)C3	10 to 100 nM
O=C(C[C@@H]1Cc2cc(Cl)c3[nH]ncc3c2CN(CC(F)(F)F)C1=O)N1CCC(N2CCN(c3ccccc3F)C2=O)CC1	> 1000 nM
O=C(C[C@@H]1Cc2cc(Cl)c3[nH]ncc3c2CN(CC(F)(F)F)C1=O)N1CCC(N2CCc3cccnc3NC2=O)CC1	0.01 to 10 nM
O=C(C[C@@H]1Cc2cc(Cl)c3[nH]ncc3c2CN(CC(F)(F)F)C1=O)N1CCC(N2CCc3ccccc3NC2=O)CC1	0.01 to 10 nM

*Q* For `COCn1ncc2c3c(cc(Cl)c21)C[C@@H](CC(=O)N1CCC(N2CCc4ccccc4NC2=O)CC1)C(=O)N(CC(F)(F)F)C3` , what is its reported IC50?
*A* 10 to 100 nM

----------
system: CGRP receptor (Homo sapiens, UniProt O60894+Q16602)
assay.method.text: CGRP radioligand binding assay ([125I]-CGRP displacement, SK-N-MC homogenate)
Set-up: endogenous in cells; host or cells: SK-N-MC cells (homogenate/membrane pellet)
condition.context: Table 2; displacement of [125I]-CGRP, SK-N-MC membranes
pIC50: −log10 of the molar value.
measurement.name: pIC50

molecule	pIC50
CC(C)(C)CN1Cc2c(ccc3[nH]ncc23)C[C@@H](NC(=O)N2CCC3(CC2)CC(=O)Nc2ccccc23)C1=O	< 6.00

*Q* For CC(C)(C)CN1Cc2c(cc(Cl)c3[nH]ncc23)C[C@@H](CC(=O)Nc2ccc3c(c2)CCC2(C3)NC(=O)NC2=O)C1=O (some centres unmarked) , what is its reported pIC50?
*A* 8.00 to 11.00

*Q* For `O=C(C[C@@H]1Cc2cc(Br)c3[nH]ncc3c2CN(CC(F)(F)F)C1=O)N1CCC(c2cc3ccccc3[nH]c2=O)CC1` , what is its reported pIC50?
*A* 8.00 to 11.00

*Q* For `COCCN1Cc2c(cc(Br)c3[nH]ncc23)C[C@@H](CC(=O)N2CCC(c3cc4ccccc4[nH]c3=O)CC2)C1=O` , what is its reported pIC50?
*A* 8.00 to 11.00

*Q* For `CC(C)(C)CN1Cc2c(cc(Cl)c3[nH]ncc23)C[C@@H](CC(=O)N2CCC(c3cc4ccc(Cl)cc4[nH]c3=O)CC2)C1=O` , what is its reported pIC50?
*A* 8.00 to 11.00

*Q* For `O=C(C[C@@H]1Cc2cc(Cl)c3[nH]ncc3c2CN(Cc2ccncc2)C1=O)N1CCC(c2cc3cccc(F)c3[nH]c2=O)CC1` , what is its reported pIC50?
*A* 8.00 to 11.00

*Q* For `CCc1cc2c(c3cn[nH]c13)CN(CC(F)(F)F)C(=O)[C@H](CC(=O)N1CCC(c3cc4cccc(F)c4[nH]c3=O)CC1)C2` , what is its reported pIC50?
*A* 7.00 to 8.00

*Q* For CC(C)(C)CN1Cc2c(ccc3[nH]ncc23)CC(NC(=O)N2CCC(N3Cc4ccccc4NC3=O)CC2)C1=O (centres unmarked) , what is its reported pIC50?
*A* 8.00 to 11.00

Attribution: patent US7470680B2
